herbicidal activity on Viola tricolor (visual rating vs untreated controls) by entry:
System: Viola tricolor
Assay: Post-emergence herbicidal action
Format: in vivo
Details: 320 g/ha, rated after about 3 weeks, 100% = plants have died, 0% = like control plants
The answer is to be given in %; state only the numeric part.

INSERT INTO assay_data (compound, target_of_assay, unit_descriptor, quantitative_readout) VALUES
  ('CCn1nc(C)c(C(=O)Nc2c(Cl)cccc2Cl)c1-c1ccc(F)cc1Cl [I-026]', 'Viola tricolor', '%', 80),
  ('Cc1nn(C)c(-c2ccc(F)cc2Cl)c1C(=O)Nc1cc(Cl)ccc1Cl [I-017]', 'Viola tricolor', '%', 90),
  ('Cc1nn(C)c(-c2ccc(F)cc2Cl)c1C(=O)Nc1cccc(F)c1 [I-027]', 'Viola tricolor', '%', 100),
  ('Cc1nn(C)c(-c2cc(F)ccc2Cl)c1C(=O)Nc1c(Cl)cccc1Cl [I-014]', 'Viola tricolor', '%', 100);

herbicidal activity on Viola tricolor (visual rating vs untreated controls) lookup needed for Cc1nn(C)c(-c2ccc(F)cc2Cl)c1C(=O)Nc1ccccc1Cl [I-029] , thanks.
100
